MEASUREMENT_PROTOCOL: Biodistribution in PC-3 tumor-bearing NSG mice (Example 2)
Type: in vivo
ASSAY_CONDITIONS: male, NSG (NOD.Cg-Prkdc^scid Il2rg^tm1Wjl/SzJ), mouse, brain, iv, total radioactivity, 60 MIN p.i.; read-out: Biodistribution BRAIN, Mean
Description: […]. The mice were sacrificed by CO2 inhalation at 1 h, and 2 h p.i. Blood was collected by cardiac puncture. Organs/tissues were harvested, rinsed with PBS, blotted dry, and weighed. The activity in tissues was assayed by gamma counter and expressed as the percentage injected dose per gram of tissue (% ID/g).
REPORTED_ENDPOINT: tissue uptake at 1 h (%ID/g)
Field format: number, assumed %ID/g, no unit text.

# input Query (compound): CC(C)C[C@@H](CN1CCC[C@H]1C(N)=O)NC(=O)[C@H](Cc1c[nH]cn1)NC(=O)CNC(=O)[C@@H](NC(=O)[C@H](C)NC(=O)[C@H](Cc1c[nH]c2ccccc12)NC(=O)[C@H](CCC(N)=O)NC(=O)[C@@H](Cc1ccccc1)NC(=O)CN1CCC(NC(=O)CN2CCN(CC(=O)O)CCN(CC(=O)O)CCN(CC(=O)O)CC2)CC1)C(C)C [^68Ga-ProBOMB2, metal not drawn] ; field requested: tissue uptake at 1 h
# output 0.02

====

MEASUREMENT_PROTOCOL: Biodistribution in PC-3 tumor-bearing NRG mice (Example 1)
Type: in vivo
ASSAY_CONDITIONS: male, NRG (NOD.Cg-Rag1tm1Mom Il2rgtm1Wjl/SzJ), mouse, whole blood, iv, 1.84 MBq, total radioactivity; 30 min p.i.; read-out: Biodistribution Blood, Mean
REPORTED_ENDPOINT: tissue uptake at 0.5 h (%ID/g)
Give a bare numeral; the unit %ID/g is implied.

# input Item CC(C)C[C@@H](CN1CCC[C@H]1C(N)=O)NC(=O)[C@H](Cc1c[nH]cn1)NC(=O)CNC(=O)[C@@H](NC(=O)[C@H](C)NC(=O)[C@H](Cc1c[nH]c2ccccc12)NC(=O)[C@H](CCC(N)=O)NC(=O)[C@@H](Cc1ccccc1)NC(=O)COCC(=O)Nc1ccc(CNC(=O)CN2CCN(CC(=O)O)CCN(CC(=O)O)CCN(CC(=O)O)CC2)cc1)C(C)C [^68Ga-ProBOMB1, metal not drawn] has what recorded tissue uptake at 0.5 h?
# output 1.06

====

MEASUREMENT_PROTOCOL: Biodistribution in PC-3 tumor-bearing NRG mice (Example 1)
Type: in vivo
ASSAY_CONDITIONS: male, NRG (NOD.Cg-Rag1tm1Mom Il2rgtm1Wjl/SzJ), mouse, spleen, iv, 1.84 MBq, total radioactivity; 120 min p.i.; read-out: Biodistribution Spleen, Mean
Procedure: The mice were sacrificed by CO2 inhalation at 30 min, 1 h, and 2 h p.i. Blood was collected by cardiac puncture. Organs/tissues were harvested, rinsed with PBS, blotted dry, and weighed. The activity in tissues was assayed by gamma counter and expressed as the percentage injected dose per gram of tissue (% ID/g).
REPORTED_ENDPOINT: tissue uptake at 2 h (%ID/g)
I only need the number, in %ID/g, no unit after it.

# input Param item = CC(C)C[C@@H](CN1CCC[C@H]1C(N)=O)NC(=O)[C@H](Cc1c[nH]cn1)NC(=O)CNC(=O)[C@@H](NC(=O)[C@H](C)NC(=O)[C@H](Cc1c[nH]c2ccccc12)NC(=O)[C@H](CCC(N)=O)NC(=O)[C@@H](Cc1ccccc1)NC(=O)COCC(=O)Nc1ccc(CNC(=O)CN2CCN(CC(=O)O)CCN(CC(=O)O)CCN(CC(=O)O)CC2)cc1)C(C)C [^68Ga-ProBOMB1, metal not drawn] ; retrieve measured tissue uptake at 2 h.
# output 0.31
